# test_target: T1, hCD71-Nluc fusion protein (human, UniProt P02786 1-760)
# T1 construct: whole, on cells; Used as crude membrane fractions of HEK293 cells stably expressing hCD71-Nluc; also called human transferrin receptor, CD71, fused to NanoLuc; not shown: NanoLuc (ProMega) luciferase joined through its N-terminal Val
# T1 sequence (P02786 other isoform, or with tags, fused parts or gaps): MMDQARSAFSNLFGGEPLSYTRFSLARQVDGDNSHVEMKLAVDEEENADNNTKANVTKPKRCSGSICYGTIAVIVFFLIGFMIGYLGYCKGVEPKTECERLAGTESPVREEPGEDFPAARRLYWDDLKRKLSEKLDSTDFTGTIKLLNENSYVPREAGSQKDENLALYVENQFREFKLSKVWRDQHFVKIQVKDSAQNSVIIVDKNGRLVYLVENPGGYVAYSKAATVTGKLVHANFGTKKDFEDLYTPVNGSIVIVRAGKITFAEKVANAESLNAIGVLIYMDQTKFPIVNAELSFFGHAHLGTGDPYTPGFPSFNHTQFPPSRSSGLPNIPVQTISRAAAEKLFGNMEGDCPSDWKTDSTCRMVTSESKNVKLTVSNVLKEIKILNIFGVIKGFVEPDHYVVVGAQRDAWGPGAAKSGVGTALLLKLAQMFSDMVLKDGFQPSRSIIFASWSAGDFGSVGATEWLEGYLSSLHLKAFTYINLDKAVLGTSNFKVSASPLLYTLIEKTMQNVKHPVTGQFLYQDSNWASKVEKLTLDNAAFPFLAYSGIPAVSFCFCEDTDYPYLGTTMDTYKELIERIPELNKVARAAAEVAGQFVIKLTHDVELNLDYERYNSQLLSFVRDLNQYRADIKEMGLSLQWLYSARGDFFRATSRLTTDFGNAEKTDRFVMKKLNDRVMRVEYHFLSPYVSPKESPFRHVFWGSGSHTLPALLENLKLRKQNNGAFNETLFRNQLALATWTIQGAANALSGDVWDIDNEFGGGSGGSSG
# test_name: nanoBRET competition, tracer BCY17871-1598988 60 nM, HEK293 hCD71-Nluc membranes
value_kind: Ki (nM)
Answers are plain numbers, in nM.

Entry CSPDAHLGCISYCEPWX (not fully specified; as printed CSPDAHLGCISYCEPW[K(N3)]: N-terminal acetyl; C-terminal amide; three Cys bound to TATB scaffold; [K(N3)] 6-azido lysine at 17 joined via BCN linker to oligonucleotide 1614438 of the duplex 486178:1614438, nucleic acids; also called Compound No. 486178:1614438 conjugated to BCY17873) [486178:1614438-BCY17873] — recorded Ki = 95
